Ki listing for selected molecules.
assay: Binding affinity was determined towards Opioid receptor delta 1 using [3H]naltrindole as radioligand
assay-metric: Ki (nM)

[[record]]
molecule = "NC(=O)c1ccc2c3c1O[C@H]1C(=O)CC[C@@]4(O)[C@@H](C2)N(CC2CC2)CC[C@]314"
readout_number = 110

[[record]]
molecule = "C[C@H]1[C@H]2Cc3ccc(O)cc3C1(C)CCN2CC1CC1 (single isomer, unassigned)"
readout_number = 1.1

[[record]]
molecule = "CC[C@@]12CCN(CC3CC3)C(C(=O)c3ccc(C(N)=O)cc31)[C@@H]2C"
readout_number = 9.8

[[record]]
molecule = "C[C@H]1C2Cc3ccc(C(N)=O)cc3[C@@]1(C)CCN2CC1CC1"
readout_number = 8.3


====

biological target: Mu-type opioid receptor (Cavia porcellus, UniProt P97266); experiment: Binding affinity was determined towards opioid receptor mu1 using [3H]DAMGO as radioligand
Sequence (P97266 whole entry): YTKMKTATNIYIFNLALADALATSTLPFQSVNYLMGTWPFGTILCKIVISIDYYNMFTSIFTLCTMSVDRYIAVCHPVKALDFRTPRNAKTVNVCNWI
assay-metric: Ki (nM)

[[record]]
compound = "O=CNc1ccc2c3c1O[C@H]1C(=O)CC[C@@]4(O)[C@@H](C2)N(CC2CC2)CC[C@]314"
system_name = "Mu-type opioid receptor (Cavia porcellus, UniProt P97266)"
value_units = "nM"
readout_number = 8.3

[[record]]
compound = "C[C@@H]1C2Cc3ccc(NC=O)cc3C1(C)CCN2CC1CC1 (single isomer, unassigned)"
system_name = "Mu-type opioid receptor (Cavia porcellus, UniProt P97266)"
value_units = "nM"
readout_number = 2300

[[record]]
compound = "Nc1ccc2c3c1O[C@H]1C(=O)CC[C@@]4(O)[C@@H](C2)N(CC2CC2)CC[C@]314"
system_name = "Mu-type opioid receptor (Cavia porcellus, UniProt P97266)"
value_units = "nM"
readout_number = 5.6

[[record]]
compound = "CC(=O)Nc1ccc2c(c1)[C@@]1(C)CCN(CC3CC3)C(C2)[C@@H]1C"
system_name = "Mu-type opioid receptor (Cavia porcellus, UniProt P97266)"
value_units = "nM"
readout_number = 240


====

target: Kappa-type opioid receptor (Cavia porcellus, UniProt P41144)
Sequence (P41144 whole entry): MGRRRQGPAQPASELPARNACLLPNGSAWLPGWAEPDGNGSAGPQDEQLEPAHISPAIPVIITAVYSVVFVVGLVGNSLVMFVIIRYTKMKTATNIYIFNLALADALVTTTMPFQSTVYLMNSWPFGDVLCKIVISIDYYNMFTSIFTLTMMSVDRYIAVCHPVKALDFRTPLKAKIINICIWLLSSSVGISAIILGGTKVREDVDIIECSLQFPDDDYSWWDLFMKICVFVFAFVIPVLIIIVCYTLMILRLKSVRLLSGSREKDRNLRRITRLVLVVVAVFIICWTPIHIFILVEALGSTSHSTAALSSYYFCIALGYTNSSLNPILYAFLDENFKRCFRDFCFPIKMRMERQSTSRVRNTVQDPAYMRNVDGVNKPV
pKi: −log10 of the molar value.
Could you please classify the records by pKi using these ranges: lower segment: < 7; middle segment: ≥ 7 and < 9; upper segment: ≥ 9

[[record]]
compound = "C[C@H]1C2Cc3ccc(N(C)C=O)cc3[C@@]1(C)CCN2CC1CC1"
answer_label = "lower segment"

[[record]]
compound = "C[C@H]1[C@H]2Cc3ccc(NC=O)cc3[C@]1(C)CCN2CC1CC1"
answer_label = "upper segment"

[[record]]
compound = "Nc1ccc2c3c1O[C@H]1C(=O)CC[C@@]4(O)[C@@H](C2)N(CC2CC2)CC[C@]314"
answer_label = "middle segment"

[[record]]
compound = "O=CNc1ccc2c3c1O[C@H]1C(=O)CC[C@@]4(O)[C@@H](C2)N(CC2CC2)CC[C@]314"
answer_label = "middle segment"

[[record]]
compound = "C[C@@H]1C2Cc3ccc(NC=O)cc3C1(C)CCN2CC1CC1 (single isomer, unassigned)"
answer_label = "lower segment"

[[record]]
compound = "C[C@H]1C2Cc3ccc(NC(=O)c4ccccc4)cc3[C@@]1(C)CCN2CC1CC1"
answer_label = "lower segment"


====

molecular target: Mu-type opioid receptor (Cavia porcellus); test: Binding affinity towards Opioid receptor mu 1 using [3H]DAMGO as radioligand
Attribute: Ki
assay-metric: Ki

[[record]]
smiles_repr = "C[C@H]1C2Cc3ccc(NCc4ccccc4)cc3[C@@]1(C)CCN2CC1CC1"
result = "~1.3 nM"

[[record]]
smiles_repr = "C[C@H]1[C@H]2Cc3ccc(Nc4ccccc4)cc3[C@@]1(C)CCN2CC1CC1"
result = "~1.3 nM"

